- Assay text: CCTE_Shafer_MEA_acute_cross_correlation_area: CCTE's Neural Acute Assay for Area of Cross Correlation, Shafer Lab (AID 2284024);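 further: area under pooled inter-electrode spike cross-correlation near zero lag as percent change from own baseline; curves fitted for loss of cross-correlation area so actives lower synchrony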
The source made the active and inactive calls. How the source made its calls: active means hit-call score of the fitted dose curve at least 0.9, where 1 is the maximum; inactive means score below 0.9.
Classes used: active, inactive

compound="CC1COC(Cn2cncn2)(c2ccc(Oc3ccc(Cl)cc3)cc2Cl)O1 (stereo unspecified)" label_class=inactive
compound=CCCN(CCC)c1c([N+](=O)[O-])cc(S(N)(=O)=O)cc1[N+](=O)[O-] label_class=inactive
compound=CS/C(C)=N/OC(=O)N(C)SN(C)C(=O)O/N=C(\C)SC label_class=inactive
compound=Cc1ccc(-c2c(Cl)nc(C#N)n2S(=O)(=O)N(C)C)cc1 label_class=inactive
compound="C#CCOS(=O)OC1CCCCC1Oc1ccc(C(C)(C)C)cc1 (stereo unspecified)" label_class=inactive
compound="Cc1c(F)c(F)c(COC(=O)C2C(/C=C(\\Cl)C(F)(F)F)C2(C)C)c(F)c1F (stereo unspecified)" label_class=active
